assayed-system: T1, hIL-4R on cells (STAT6-transfected HEK293, TF1, TF1/A12) (human, UniProt P24394 26-825)
T1 sequence (looked up): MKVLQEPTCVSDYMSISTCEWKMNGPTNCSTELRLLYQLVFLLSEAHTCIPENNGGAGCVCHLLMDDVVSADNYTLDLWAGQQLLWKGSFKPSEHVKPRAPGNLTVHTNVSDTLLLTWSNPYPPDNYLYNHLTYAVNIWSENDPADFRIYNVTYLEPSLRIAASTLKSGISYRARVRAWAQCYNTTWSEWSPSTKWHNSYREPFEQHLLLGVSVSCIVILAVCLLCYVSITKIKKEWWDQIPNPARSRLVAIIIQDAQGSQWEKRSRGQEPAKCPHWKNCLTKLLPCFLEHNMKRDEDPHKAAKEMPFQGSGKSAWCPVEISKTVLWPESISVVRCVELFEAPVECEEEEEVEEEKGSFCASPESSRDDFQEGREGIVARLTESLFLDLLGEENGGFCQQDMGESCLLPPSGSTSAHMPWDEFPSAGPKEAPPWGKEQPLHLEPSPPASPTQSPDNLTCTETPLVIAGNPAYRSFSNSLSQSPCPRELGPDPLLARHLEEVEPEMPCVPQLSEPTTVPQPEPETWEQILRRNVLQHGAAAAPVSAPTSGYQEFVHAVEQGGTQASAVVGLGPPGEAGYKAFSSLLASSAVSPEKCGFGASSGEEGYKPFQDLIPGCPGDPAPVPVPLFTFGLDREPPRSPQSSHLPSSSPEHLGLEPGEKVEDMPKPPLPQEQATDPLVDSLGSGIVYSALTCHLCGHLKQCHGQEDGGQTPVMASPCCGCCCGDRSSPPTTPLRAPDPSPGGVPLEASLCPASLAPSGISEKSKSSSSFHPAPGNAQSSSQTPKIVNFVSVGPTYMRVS
test-details: cell-based or functional assay
A collection of binders and their measured STAT6 Bioassay IC50 (HEK293 STAT6 luciferase, 10 pM hIL-4)

Record VAK11D4-1 (antibody, V domains shown, Apparently tested with mouse constant region (anti-mouse IgG capture/detection)) VH: QVRLVESGGGVVQPGRSLRLSCVASGFTFRSYGMHWVRQAPGRGLEWVAVISYDGSQTFYVDSVKVRFTISRDNSNNTLYLEMNSLRVDDTAVYFCVKEGRSGSWFDPWGQGTLVAVSS VL: DIHMTQSPSSLSASVGDRVTITCRASQAINNYLAWFQQKPGRTPKSLIFATSSLQSGVPSRFSGSGSGTDFTLTISSLQPEDFATYYCQQYNSHPWTFGQGTKVEIK , field STAT6 Bioassay IC50 (HEK293 STAT6 luciferase, 10 pM hIL-4): 0.2 nM

Notebook: VAB 7B9-3 (antibody, V domains shown, Apparently tested with mouse constant region (anti-mouse IgG capture/detection)) VH: QVQLVQSGAEVKKPGASVKVSCKDSAYTFNRYGISWVRQAPGQGLEWMGWISAYTGNTVYAQKLQGRVTMTTDNSTSTAYMELRSLRSDDTAVYYCARDKSIFGVVRGFDYWGQGTLVTVSS VL: EIVMTQSPVTLSLSPGERATLPCRASQSVSSSLAWYQQKAGQSPRLLIYGASTRATGIPARFSGSGSGTEFTLTISNLQSEDFAVYYCQQYNNWPLTFGGGTKVEIK , STAT6 Bioassay IC50 (HEK293 STAT6 luciferase, 10 pM hIL-4) read as 3.4 nM

The reported STAT6 Bioassay IC50 (HEK293 STAT6 luciferase, 10 pM hIL-4) of the binder VAB 16F3-1 (antibody, V domains shown, Apparently tested with mouse constant region (anti-mouse IgG capture/detection)) VH: QVQLVQSGAEVKKPGASVKVSCKASGYTFNSYGISWVRQAPGQGLEWMGWIRTYNGNTNYAQKLQGRVTMTTDTSTSTAYMELRSLRSDDTAVYYCARDEARIVVAGTTPYYYGMDVWGQGTTVTVSS VL: DIQMTQSPSSVSASVGDRVTITCRASQDISIWLAWYQQSPGKAPKLLINVASRLQSGVPSRFSGSGSGTDFTLTINSLQPEDFVTYYCQQANSFPITFGQGTRLATK was 32 pM
